Reference for the values: ChEMBL document CHEMBL1138414

Assayed Target: Galectin-1 (Homo sapiens)
Test Description: Inhibition of carbohydrate-dependent human galectin1 binding at 10 mM by solid phase assay
The source made the active and inactive calls. No cut-off for these calls is given here. Non-standard residues stand in square brackets, D forms with d. Residues, ends and D or L forms follow the SMILES beside them. *: point of attachment. X1 = OC[C@H]1O[C@@H](O[C@H]2[C@H](O)[C@@H](O)[C@@H](*)O[C@@H]2CO)[C@H](O)[C@@H](O)[C@H]1O; βGal = OC[C@H]1O[C@@H](*)[C@H](O)[C@@H](O)[C@H]1O; X2 = OC[C@H]1O[C@@H](N*)[C@H](O)[C@@H](O)[C@H]1O; Cha = N[C@@H](CC1CCCCC1)C(=O)O
Measured Property: inhibition

Past entries and their recorded results:
INSERT INTO results (compound, measured_property, val) VALUES
  ('CC(C)[C@H](NC(=O)[C@H](CC1CCCCC1)NC(=O)[C@H](CC(N)=O)NC(=O)[C@H](CC1CCCCC1)NC(=O)[C@@H]1CCCN1)C(=O)N[C@@H](Cc1ccc(O)cc1)C(=O)O (H-P[Cha]N[Cha]VY-OH)', 'inhibition', '67%'),
  ('CC[C@H](C)[C@H](NC(=O)[C@@H]1CCCN1)C(=O)N[C@@H](Cc1ccccc1)C(=O)N[C@H](C(=O)N[C@@H](CCCNC(=N)N)C(=O)N[C@@H](CCCNC(=N)N)C(=O)O)[C@@H](C)O[C@H]1O[C@H](CO)[C@@H](O[C@@H]2O[C@H](CO)[C@H](O)[C@H](O)[C@H]2O)[C@H](O)[C@H]1O (H-PIFT(X1)RR-OH)', 'inhibition', 'inactive'),
  ('CC[C@H](C)[C@H](N)C(=O)N[C@@H](Cc1ccccc1)C(=O)N[C@@H](CCCNC(=N)N)C(=O)N[C@@H](CC1CCCCC1)C(=O)N[C@@H](CCCNC(=N)N)C(=O)N[C@@H](Cc1ccc(O)cc1)C(=O)O (H-IFR[Cha]RY-OH)', 'inhibition', '70%'),
  ('CC[C@H](C)[C@H](NC(=O)[C@@H](NC(=O)[C@@H](N)CC1CCCCC1)C(C)C)C(=O)N[C@@H](CC(=O)N[C@@H]1O[C@H](CO)[C@H](O)[C@H](O)[C@H]1O)C(=O)N[C@@H](Cc1ccc(O)cc1)C(=O)N[C@@H](CCC(N)=O)C(=O)O (H-[Cha]VID(X2)YQ-OH)', 'inhibition', 'inactive');

### Prompt Look up and report measured inhibition for this entry: CC[C@H](C)[C@H](NC(=O)[C@@H](N)[C@@H](C)O[C@@H]1O[C@H](CO)[C@H](O)[C@H](O)[C@H]1O)C(=O)N[C@H](C(=O)N[C@@H](CCC(N)=O)C(=O)N[C@@H](CC1CCCCC1)C(=O)N[C@@H](Cc1ccc(O)cc1)C(=O)O)[C@@H](C)CC (H-T(βGal)IIQ[Cha]Y-OH)
### Response inactive

### Prompt Look up and report measured inhibition for this entry: OC[C@H]1O[C@@H](O)[C@H](O)[C@@H](O)[C@H]1O
### Response 17%

### Prompt Look up and report measured inhibition for this entry: CC[C@H](C)[C@H](NC(=O)[C@H](Cc1ccccc1)NC(=O)[C@H](Cc1ccccc1)NC(=O)[C@@H]1CCCN1)C(=O)N[C@@H](CO)C(=O)N[C@@H](CCCNC(=N)N)C(=O)O (H-PFFISR-OH)
### Response 9%
